- assay name: Clearance in cynomolgus monkey at 2.5 mg/kg, iv and 5 mg/kg, po by LC-MS/MS analysis
- Assay type: ADME, organism-based, Macaca fascicularis
- condition info: in vivo
outcome measure: clearance (mL/min/kg)
Dear colleague, please return just the value in mL/min/kg, with no unit written.

Exercise: What value of measured clearance is listed for CNS(=O)(=O)[N-]c1cccc(Cc2c(C)c3ccc(Oc4ncccn4)cc3oc2=O)c1F.[Na+] ?
Key: 0.9

====

- assay name: Half life in cynomolgus monkey at 2.5 mg/kg, iv by LC-MS/MS analysis
- condition info: in vivo
outcome measure: half-life (min)
Supply the numeric figure in min, leaving out any unit text.

Exercise: Item CNS(=O)(=O)[N-]c1cccc(Cc2c(C)c3ccc(Oc4ncccn4)cc3oc2=O)c1F.[Na+] has what recorded half-life?
Key: 174

====

- assay name: Half life in rat at 5 mg/kg, iv by LC-MS/MS analysis
- Type: ADME, organism-based
- Design: dose 5 mg/kg, route intravenous
- condition info: in vivo
outcome measure: half-life (h)
Enter your answer as a number in h; do not include the unit.

Exercise: Which half-life is listed for CNS(=O)(=O)[N-]c1cccc(Cc2c(C)c3ccc(Oc4ncccn4)cc3oc2=O)c1F.[Na+] ?
Key: 1.3

====

- tgt: Dual specificity mitogen-activated protein kinase kinase 1 (Homo sapiens, UniProt Q02750)
- Sequence (Q02750 whole entry): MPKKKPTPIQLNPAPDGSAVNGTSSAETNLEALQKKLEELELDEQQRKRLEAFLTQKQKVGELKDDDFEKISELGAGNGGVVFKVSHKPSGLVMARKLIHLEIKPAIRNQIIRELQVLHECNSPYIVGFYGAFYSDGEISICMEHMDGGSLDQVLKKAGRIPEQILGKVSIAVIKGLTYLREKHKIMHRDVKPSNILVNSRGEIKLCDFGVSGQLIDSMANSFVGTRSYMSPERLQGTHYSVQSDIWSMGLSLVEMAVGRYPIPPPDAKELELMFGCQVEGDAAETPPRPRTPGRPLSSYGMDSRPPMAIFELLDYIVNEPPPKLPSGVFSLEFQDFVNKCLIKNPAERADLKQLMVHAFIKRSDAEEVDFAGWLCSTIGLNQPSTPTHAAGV
- assay name: Inhibition of MEK1 (unknown origin) assessed as phosphorylation of Erk2 preincubated for 30 mins followed by FAM-Erktide addition measured after 60 mins by IMAP fluorescence polarization assay
outcome measure: pIC50
The read-out pIC50 is expressed as -log10 of concentration in moles per litre.

Here's what some known entries look like.
Exercise: pIC50 lookup needed for CN(C)C(=O)Oc1ccc2c(CF)c(Cc3cccc(NS(N)(=O)=O)c3)c(=O)oc2c1 , thanks.
Key: 7.22

Exercise: Requested read-out: pIC50. Entry: Cc1c(Cc2cc(NS(N)(=O)=O)ccc2F)c(=O)oc2cc(OC(=O)N(C)C)ccc12
Key: 6.03

Exercise: // lookup pIC50 for CNS(=O)(=O)Nc1cccc(Cc2c(C)c3cc(I)c(OC(=O)N(C)C)cc3oc2=O)c1
Key: 8.30

Exercise: # get_value(readout='pIC50', item= Cc1c(Cc2cccc(NS(N)(=O)=O)c2)c(=O)oc2c(F)c(OC(=O)N(C)C)ccc12 )
Key: 6.62

Exercise: May I ask what pIC50 has been recorded for Cc1c(Cc2cccc(NS(N)(=O)=O)c2)c(=O)oc2cc(OC(=O)N(C)C)c(F)cc12 ?
Key: 6.96

Exercise: Given the compound CNS(=O)(=O)Nc1cccc(Cc2c(C)c3ccc(Oc4nccs4)cc3oc2=O)c1 , what is its reported pIC50?
Key: 7.23

Exercise: Which measured pIC50 value corresponds to CNS(=O)(=O)Nc1cccc(Cc2c(C)c3cc(F)c(OC(=O)N(C)C)cc3oc2=O)c1 ?
Key: 7.19

Exercise: Which pIC50 value belongs to Cc1c(Cc2ccc(F)c(NS(N)(=O)=O)c2)c(=O)oc2cc(OC(=O)N(C)C)ccc12 ?
Key: 7.36

Exercise: Query: pIC50; subject: C#Cc1cc2c(C)c(Cc3cccc(NS(=O)(=O)NC)c3)c(=O)oc2cc1OC(=O)N(C)C
Key: 7.00

Exercise: May I ask what pIC50 has been recorded for CNS(=O)(=O)Nc1cccc(Cc2c(C)c3cc(C)c(OC(=O)N(C)C)cc3oc2=O)c1 ?
Key: 7.54

---
Exercise: Given the compound CNS(=O)(=O)Nc1cccc(Cc2c(C)c3ccc(Oc4ncccn4)cc3oc2=O)c1C , what is its reported pIC50?
Key: 5.38

Exercise: Look up pIC50: CNS(=O)(=O)Nc1cccc(Cc2c(C)c3cc(C#N)c(OC(=O)N(C)C)cc3oc2=O)c1
Key: 7.07

Exercise: Item under review: CNS(=O)(=O)Nc1cccc(Cc2c(C)c3ccc(OC(=O)N(C)C)cc3oc2=O)c1 . Reported pIC50?
Key: 6.96

Exercise: Report pIC50 for Cc1c(Cc2cccc(NS(N)(=O)=O)c2)c(=O)oc2cc(OC(=O)N(C)C)ccc12 please.
Key: 6.64

Exercise: Dear colleague, I am looking for the recorded pIC50 of the following compound: CNS(=O)(=O)Nc1cccc(Cc2c(CF)c3ccc(OC(=O)N(C)C)cc3oc2=O)c1
Key: 7.18
